measuredOn: Ubiquitin carboxyl-terminal hydrolase 10 (Homo sapiens)
testDetails: blocks human USP10 ubiquitin-rhodamine cleavage (AID 1645856)
conditionDetails: purified USP10, Ub-rhodamine fluorescence, 60 min; at 20 µM
Out of some 47,000 compounds screened, about 510 (1.1%) were called active. Cut-off read from the data, not from the text of the source: active = inhibition above about 30%; inactive = the rest. The list comes from a sample in which actives are over-represented; it also holds close analogues and randomly drawn compounds.
Allowed answers: yes (1) for active, no (0) for inactive

Cc1ccc(NC(=O)CCC(=O)N(c2ccccc2)c2ccccc2)cc1Cl :: no (0)
Cc1ccc(C2c3[nH]c4ccccc4c3C[C@H]3C(=O)N(c4ccccc4C(=O)NC4CCCCC4)C(=O)N23)cc1 (stereo not given in full) :: no (0)
Cc1cc(=O)n(CC(=O)NCc2ccccc2)c(N2CCCC2)n1 :: no (0)

Test call for this compound, please: `CCN1C(=O)[C@H]2CN(C(C)=O)C[C@H]2C12CCN(C(=O)NCCc1ccc(OC)cc1)CC2`
no (0)

Item: `Cc1ccc(NC(=O)Cc2sc(Nc3ccc(C)cc3)nc2O)cc1`
no (0)

Item: `Cc1ccc(-n2cc(-c3noc(C(=O)Nc4ccc(F)cc4C)n3)nn2)cc1`
yes (1)

Item: Cc1ccc(N2CC(c3nnc(NC(=O)CCCc4ccccc4)s3)CC2=O)cc1 (stereo not given)
no (0)

Item: Nc1ccc(C(=O)OCC(=O)NC2CCCc3ccccc32)cc1[N+](=O)[O-] (stereo not given)
yes (1)

Item: `Cc1ccc(NC(=O)CCOc2ccccc2)cc1S(=O)(=O)Nc1ccccc1Cl`
yes (1)

Item: COc1ccc(N2CC(c3nnc(NC(=O)CCc4ccccc4)s3)CC2=O)cc1 (stereo not given)
yes (1)

Item: `O=C(Nc1nnc(-c2cccc([N+](=O)[O-])c2)o1)C1CCN(S(=O)(=O)c2ccc3c(c2)CCC3)CC1`
yes (1)

Item: `CC(C)N1CCN(S(=O)(=O)c2cc(-c3nnc(C4CC4)o3)co2)CC1`
no (0)

Item: `COc1ccc(-c2cc(C(=O)NCCCN3CCCC3=O)c3ccccc3n2)cc1OC`
no (0)

Item: Cc1ccc(CC(=O)Nc2nnc(C3CC(=O)N(c4ccc(C)c(C)c4)C3)s2)cc1 (stereo not given)
no (0)

Item: Cn1c(=O)n(C2CCN(C(=O)Cc3ccccc3)C2)c2ncncc21 (stereo not given)
no (0)

Item: `CC(C)CN1C[C@@]23CN(C(=O)NCCc4ccc(F)cc4)C[C@@H](C[C@@H]2S1(=O)=O)O3`
no (0)

Item: COc1ccc(C(O)Cc2nc3ccccc3n2Cc2ccc(Cl)cc2)cc1 (stereo not given)
no (0)

Item: `Cc1ccc(Cn2cc(-c3noc(-c4ccccn4)n3)nn2)cc1`
no (0)

Item: C=C1CCC2[C@](C)(CCC[C@]2(C)C(=O)OC)[C@H]1CCc1ccoc1C[N+](C)(C)Cc1ccccc1 (stereo not given in full)
no (0)

Item: Cc1ccc(CN2C(=O)C(CC(=O)Nc3ccccc3F)n3c2nc2ccccc23)cc1 (stereo not given)
no (0)

Item: `COc1ccc(NS(=O)(=O)c2cc(NC(=O)CC(=O)c3ccc([N+](=O)[O-])cc3)ccc2C)cc1`
yes (1)

Item: `COc1cccc(NC(=O)COC(=O)c2ccc(OC)c(S(=O)(=O)Nc3cc(Cl)c(OC)cc3OC)c2)c1`
no (0)
